- testedSystem: Torsin-1A-interacting protein 1 (Homo sapiens)
- assaySummary: LAP1 binders from COS7 cell lysate, primary screen, small-molecule microarray, 635/667 nm fluorescence (AID 1116)
- settings: COS7-hLAP1 lysate binding, 635 nm fluorescence, higher = more signal
Rule: composite z-score under 0.7 gives no, otherwise yes.

Example cases with answers are listed next.
compound: COCCCNC(=O)[C@]1(Cc2ccccc2CN=[N+]=[N-])N=C(c2ccc(OCCCO)cc2)O[C@@H]1c1ccccc1
category: yes
--
compound: CC(C)c1ccc(NN2C(C(O)c3ccco3)C=CC3C(=O)N(c4ccccc4)C(=O)C32)cc1 (stereo not drawn)
category: yes
--
compound: O=C1O[C@@H](c2ccccc2)[C@@H](c2ccccc2)N2[C@@H](c3ccc(O)cc3)[C@]3(C(=O)Nc4ccc(C#CCCO)cc43)[C@@H](C(=O)NC[C@H](O)c3ccccc3)[C@H]12
category: no

Identify whether the reported composite z-score of the following compound is 0.7 or greater: "CC(C)CNC(=O)[C@@H]1c2ccccc2C(=O)N(Cc2cc(F)cc(C(F)(F)F)c2)[C@H]1c1ccc(CO)cc1"
no

Identify whether the reported composite z-score of the following compound is 0.7 or greater: "NC(=O)NCC#Cc1ccc2c(c1)[C@]1(C(=O)N2)[C@H](C(=O)O)[C@H]2C(=O)O[C@H](c3ccccc3)[C@H](c3ccccc3)N2[C@@H]1c1ccccc1OCCO"
yes

Identify whether the reported composite z-score of the following compound is 0.7 or greater: CN1C(=O)C2C=CC(C(O)Cc3ccccc3)N(N(c3ccccc3)c3ccccc3)C2C1=O (stereo not drawn)
no

Identify whether the reported composite z-score of the following compound is 0.7 or greater: "CCOC(=O)C[C@H]1[C@H](OC(=O)Cc2ccc3c(c2)OCO3)[C@@H](NC(=O)C2CCCCC2)c2cc(OCCCO)ccc2N1C(=O)c1ccc2ccccc2n1"
yes

Identify whether the reported composite z-score of the following compound is 0.7 or greater: "C=C(/C(=C/C[C@@H](OC(=O)c1ccncc1)c1ccc(OCCO)cc1)c1cc(C(=O)OC)ccc1OC)C(C)C"
no

Identify whether the reported composite z-score of the following compound is 0.7 or greater: CC(C)C(O)C1C=CC2C(=O)N(C)C(=O)C2N1N(c1ccccc1)c1ccccc1 (stereo not drawn)
no

Identify whether the reported composite z-score of the following compound is 0.7 or greater: "C[C@@H]1ON(c2ccc(C(=O)OC(C)(C)C)cc2)[C@H](c2ccc(Br)cc2)[C@H]1C(=O)N1C(=O)OC[C@H]1Cc1ccccc1"
no

Identify whether the reported composite z-score of the following compound is 0.7 or greater: C[C@H]1C2=C3C(CC[C@H]4C(OCc5ccc(F)cc5C(F)(F)F)OC[C@](C)([C@@H]34)N(C(=O)OC(C)(C)C)C2)C2COC(=O)OCC21 (stereo partly drawn)
yes
